- Target desc: Nav1.7 (or SCN9A) channel (Homo sapiens, UniProt Q15858)
- Sequence (Q15858 whole entry): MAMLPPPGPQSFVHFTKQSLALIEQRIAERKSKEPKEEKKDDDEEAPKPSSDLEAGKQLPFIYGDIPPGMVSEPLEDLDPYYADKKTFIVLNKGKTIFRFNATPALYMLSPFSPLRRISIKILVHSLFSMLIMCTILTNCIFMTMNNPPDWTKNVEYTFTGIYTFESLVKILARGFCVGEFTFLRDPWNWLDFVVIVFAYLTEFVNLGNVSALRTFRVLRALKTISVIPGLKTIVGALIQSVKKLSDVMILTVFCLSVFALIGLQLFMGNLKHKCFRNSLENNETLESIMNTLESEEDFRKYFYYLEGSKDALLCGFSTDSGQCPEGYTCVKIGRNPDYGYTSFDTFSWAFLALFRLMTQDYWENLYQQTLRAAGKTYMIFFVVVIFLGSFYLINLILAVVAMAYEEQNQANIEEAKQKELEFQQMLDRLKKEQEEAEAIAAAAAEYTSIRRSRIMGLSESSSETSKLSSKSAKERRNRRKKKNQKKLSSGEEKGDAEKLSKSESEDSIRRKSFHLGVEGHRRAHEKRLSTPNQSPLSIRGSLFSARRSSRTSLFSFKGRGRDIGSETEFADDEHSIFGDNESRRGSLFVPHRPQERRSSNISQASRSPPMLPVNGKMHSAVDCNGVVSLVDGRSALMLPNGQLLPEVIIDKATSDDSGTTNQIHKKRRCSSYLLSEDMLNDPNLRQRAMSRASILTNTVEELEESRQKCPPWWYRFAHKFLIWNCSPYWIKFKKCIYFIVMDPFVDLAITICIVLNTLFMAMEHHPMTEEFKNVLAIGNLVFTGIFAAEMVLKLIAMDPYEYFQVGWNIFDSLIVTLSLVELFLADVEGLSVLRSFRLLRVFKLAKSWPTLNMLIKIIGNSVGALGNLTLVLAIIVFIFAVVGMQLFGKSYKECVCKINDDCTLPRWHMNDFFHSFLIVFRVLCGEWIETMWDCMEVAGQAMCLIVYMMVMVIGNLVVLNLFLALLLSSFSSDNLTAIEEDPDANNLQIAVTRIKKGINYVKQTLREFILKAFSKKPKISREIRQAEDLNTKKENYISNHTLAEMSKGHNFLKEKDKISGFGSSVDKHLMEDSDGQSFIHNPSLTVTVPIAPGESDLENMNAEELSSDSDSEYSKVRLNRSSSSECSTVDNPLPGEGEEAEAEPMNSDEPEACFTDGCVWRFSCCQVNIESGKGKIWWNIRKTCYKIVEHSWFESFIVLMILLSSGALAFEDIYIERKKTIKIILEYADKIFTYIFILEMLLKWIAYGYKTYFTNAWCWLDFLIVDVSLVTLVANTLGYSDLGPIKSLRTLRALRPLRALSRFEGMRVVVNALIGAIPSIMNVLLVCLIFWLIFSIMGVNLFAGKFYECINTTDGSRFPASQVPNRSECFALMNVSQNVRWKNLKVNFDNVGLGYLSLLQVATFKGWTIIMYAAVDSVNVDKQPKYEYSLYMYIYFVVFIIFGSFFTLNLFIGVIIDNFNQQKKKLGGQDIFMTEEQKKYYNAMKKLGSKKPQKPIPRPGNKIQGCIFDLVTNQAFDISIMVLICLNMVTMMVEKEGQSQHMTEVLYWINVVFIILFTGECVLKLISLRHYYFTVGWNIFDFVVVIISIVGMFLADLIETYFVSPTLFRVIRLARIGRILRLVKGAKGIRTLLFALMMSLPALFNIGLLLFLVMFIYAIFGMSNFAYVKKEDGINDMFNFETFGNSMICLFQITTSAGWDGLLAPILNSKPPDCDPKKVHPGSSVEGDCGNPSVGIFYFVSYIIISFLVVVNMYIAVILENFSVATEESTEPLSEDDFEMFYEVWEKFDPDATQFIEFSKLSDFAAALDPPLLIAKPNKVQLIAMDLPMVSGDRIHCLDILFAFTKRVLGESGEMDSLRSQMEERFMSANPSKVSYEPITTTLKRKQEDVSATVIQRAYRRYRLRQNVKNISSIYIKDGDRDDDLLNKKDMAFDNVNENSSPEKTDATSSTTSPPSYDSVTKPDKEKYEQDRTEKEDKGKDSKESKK
- Assay procedure: Nav1.7 (hSCN9A) PatchXpress electrophysiology in HEK cells
- Settings: PatchXpress platform; HEK cells stably expressing hSCN9A; held at V1/2 of inactivation; calculated from single point % inhibition; read-out: Nav1.7 EIC50 (estimated IC-50)
Assay endpoint: log10(IC50) (log10 of the value in nM)
Lab note - IC50 converted to log10 from values in nM.

# annotated cases, reported log10(IC50) shown
INSERT INTO results (cpd_smiles, measurement) VALUES
  ('N#Cc1cc(S(=O)(=O)Nc2ncns2)ccc1Oc1ccc(-c2ccc(C(F)(F)F)cc2)cc1-c1ccnnc1', 0.08),
  ('N#Cc1cc(S(=O)(=O)Nc2ncns2)ccc1Oc1ccc(-c2ccccc2C(F)(F)F)cc1-c1ccnnc1', 0.43),
  ('O=S(=O)(Nc1nncs1)c1cc(Cl)c(Oc2ccc(-c3ccc(Cl)c(C(F)(F)F)c3)cc2-c2ccnnc2)cc1F', -0.10),
  ('O=S(=O)(Nc1ncccn1)c1cc(Cl)c(Oc2ccc(-c3ccc(C(F)(F)F)cc3)cc2-c2ccnnc2)cc1F', 0.91),
  ('CN1CC(n2nccc2-c2cc(-c3ccccc3C(F)(F)F)ccc2Oc2cc(F)c(S(=O)(=O)Nc3nncs3)cc2Cl)C1', 0.34),
  ('O=S(=O)(Nc1nncs1)c1cc(Cl)c(Oc2cc(Cl)c(-c3cccc(F)c3)cc2-c2ccnnc2)cc1F', 0.36);

# input for lookup
Asked: Endpoint output: log10(IC50) of O=S(=O)(Nc1nncs1)c1cc(Cl)c(Oc2cc(-c3ccc(F)cc3)c(Cl)cc2-c2ccnnc2)cc1F . Value?
Given back: 1.08

---

Below, each entry is listed with its recorded IC50.
- Target desc: Nav1.7 (or SCN9A) channel (Homo sapiens, UniProt Q15858)
- Assay procedure: Nav1.7 (hSCN9A) PatchXpress electrophysiology in HEK cells
- Settings: PatchXpress platform; HEK cells stably expressing hSCN9A; held at V1/2 of inactivation; calculated from single point % inhibition; read-out: Nav1.7 EIC50 (estimated IC-50)
The response must be a number in nM with no trailing unit.

INSERT INTO assay_data (cpd_smiles, measurement) VALUES
  ('COc1ccccc1-c1ccc(Oc2ccc(S(=O)(=O)Nc3nccs3)cc2C#N)c(-c2ccnn2C)c1', 11),
  ('O=S(=O)(Nc1nncs1)c1cc(Cl)c(Oc2cc(Cl)c(-c3ccccc3F)cc2-c2ccnnc2)cc1F', 0.9),
  ('O=S(=O)(Nc1nncs1)c1cc(Cl)c(Oc2ccc(-c3cccc(C(F)(F)F)n3)cc2-c2ccnnc2)cc1F', 16);

Asked: Endpoint output: IC50 of O=S(=O)(Nc1cccnn1)c1ccc(Oc2ccc(-c3ccc(C(F)(F)F)cc3)cc2-c2ccnnc2)c(Cl)c1 . Value?
Given back: 31

---

- Target desc: UniProtKB Q15858
- Assay procedure: Nav1.7 (hSCN9A) PatchXpress electrophysiology in HEK cells
- Settings: PatchXpress platform; HEK cells stably expressing hSCN9A; held at V1/2 of inactivation; calculated from single point % inhibition; read-out: Nav1.7 EIC50 (estimated IC-50)
Where a name gives a salt, the structure may show the parent alone.
Assay endpoint: log10 of IC50 (log10 of the value in nM)
Lab note - IC50 converted to log10 from values in nM.

INSERT INTO measurements (compound, measurement) VALUES
  ('O=S(=O)(Nc1nncs1)c1cc(Cl)c(Oc2ccc(-c3ccc(C(F)(F)F)cc3)cc2-c2ccnc(N3CCNCC3)c2)cc1F [Example 34, hydrochloride]', -0.30),
  ('O=S(=O)(Nc1nncs1)c1cc(Cl)c(Oc2cc(Cl)c(-c3cccc(C(F)(F)F)c3)cc2-c2ccnnc2)cc1F [Example 28]', -0.05),
  ('N#Cc1cc(S(=O)(=O)Nc2nncs2)ccc1Oc1ccc(-c2ccccc2)cc1-c1ccnnc1 [Example 10]', 1.72);

Asked: Endpoint output: log10 of IC50 of O=S(=O)(Nc1nncs1)c1cc(Cl)c(Oc2ccc(-c3ccccc3)cc2-c2ccnnc2)cc1F [Example 11] . Value?
Given back: 0.89

Asked: Then what about the compound Cn1nccc1-c1cc(-c2ccccc2)ccc1Oc1ccc(S(=O)(=O)Nc2nccs2)cc1F [Example 8] ?
Given back: 1.51

Asked: Then what about the compound Cn1nccc1-c1cc(-c2ccccc2)ccc1Oc1ccc(S(=O)(=O)Nc2ccc(F)cn2)cc1C#N [Example 20] ?
Given back: 2.38

---

Below, each entry is listed with its recorded IC50.
- Target desc: Nav1.7 (or SCN9A) channel (Homo sapiens, UniProt Q15858)
- Assay procedure: Nav1.7 (hSCN9A) PatchXpress electrophysiology in HEK cells
- Settings: PatchXpress platform; HEK cells stably expressing hSCN9A; held at V1/2 of inactivation; calculated from single point % inhibition; read-out: Nav1.7 EIC50 (estimated IC-50)
The response must be a number in nM with no trailing unit.

INSERT INTO assay_data (molecule, assay_endpoint, measurement) VALUES
  ('O=S(=O)(Nc1nncs1)c1cc(Cl)c(Oc2cc(Cl)c(-c3ccc(F)cc3)cc2-c2ccnnc2)cc1F [Example 24]', 'IC50', 1.7),
  ('O=S(=O)(Nc1nncs1)c1ccc(Oc2ccc(-c3ccccc3)cc2-c2ccnnc2)c(Cl)c1 [Example 9]', 'IC50', 11.6),
  ('O=S(=O)(Nc1nncs1)c1cc(Cl)c(Oc2ccc(-c3ccc(C(F)(F)F)nc3)cc2-c2ccnnc2)cc1F [Example 30]', 'IC50', 23),
  ('N#Cc1cc(S(=O)(=O)Nc2ncns2)ccc1Oc1ccc(-c2cccc(C(F)(F)F)c2)cc1-c1ccnnc1 [Example 1]', 'IC50', 1.8),
  ('O=S(=O)(Nc1ncccn1)c1cc(Cl)c(Oc2ccc(-c3ccc(C(F)(F)F)cc3)cc2-c2ccnc(N3CCNCC3)c2)cc1F [Example 40]', 'IC50', 1),
  ('Cn1nccc1-c1cc(-c2ccccc2)ccc1Oc1ccc(S(=O)(=O)Nc2ncc(F)s2)cc1C#N [Example 15]', 'IC50', 6);

Asked: Endpoint output: IC50 of Cn1nccc1-c1cc(-c2ccccc2)ccc1Oc1ccc(S(=O)(=O)Nc2ncns2)cc1C#N [Example 16] . Value?
Given back: 1.5

Asked: Then what about the molecule N#Cc1cc(S(=O)(=O)Nc2ncns2)ccc1Oc1ccc(-c2ccccc2)cc1-c1ccnnc1 [Example 12] ?
Given back: 1.9

Asked: Then what about the molecule Cn1nccc1-c1cc(-c2ccccc2)ccc1Oc1cc(F)c(S(=O)(=O)Nc2ccc(F)cn2)cc1Cl [Example 22] ?
Given back: 33
